Target: rat MrgD (Rattus norvegicus)
Construct: expressed in transfected cells
Sequence (Q7TN41 1-319): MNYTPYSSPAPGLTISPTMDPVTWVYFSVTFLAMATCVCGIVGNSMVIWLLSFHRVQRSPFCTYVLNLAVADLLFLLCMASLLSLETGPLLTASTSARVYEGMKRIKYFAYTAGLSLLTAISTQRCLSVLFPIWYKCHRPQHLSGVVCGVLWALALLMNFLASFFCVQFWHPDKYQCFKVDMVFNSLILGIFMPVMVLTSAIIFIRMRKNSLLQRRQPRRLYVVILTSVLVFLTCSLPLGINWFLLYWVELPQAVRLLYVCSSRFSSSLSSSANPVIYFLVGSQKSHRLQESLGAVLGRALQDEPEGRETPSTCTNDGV
Assay: Calcium mobilization FLIPR assay, agonist dose-response, CHO-DUKX cells expressing rat MrgD
Format: cell-based
Conditions: result in words
MEASURE NAME: FLIPR response in rat MrgD expressing cells

>  <RECORD SMILES>
NCC(=O)O

>  <TARGET ENTITY>
rat MrgD (Rattus norvegicus)

>  <RESULT>
not

$$$$

Data origin: paper PMC2947157
